Origin of measurements: ChEMBL document CHEMBL5257153

Method Summary: Metabolic stability in human microsomes assessed as half life
Format: ADME, Microsome
Endpoint: half-life

In: half-life for `CC[C@H](NC(=O)[C@H]1CN(c2ccc(C(=N)N)cc2)C(=O)O1)c1cccc2ccccc12` ?
Out: > 3 h

###

Test system: NCI-H460
Method Summary: Anticancer activity against human NCI-H460 cells assessed as cell growth inhibition incubated for 48 hrs by MTT assay
Assay type: functional, cell-based
Run Parameters: NCI-H460, 48 h
Endpoint: pIC50
Convention used: pIC50 is expressed as -log10 of the molar concentration.

In: pIC50 for CC(C)c1ccc2c(c1)CCC1[C@](C)(C(=O)OCC3CN(c4ccc(F)cc4)C(=O)O3)CCC[C@]21C (stereo partly specified) ?
Out: 5.42
